- System: Italian ryegrass
- Test: Test A postemergence
- Assay type: in vivo, Lolium multiflorum
- Assay context: 125 g ai/ha, 0 to 100 scale, 0 no effect, 100 complete control
Experimental endpoint: Plant response rating, Ryegrass, Italian
One number for each entry.

Fc1cccc(Oc2ncc(Cl)cn2)c1-n1cc(OCC(F)(F)F)cn1 30
Clc1cnc(Oc2ccccc2-n2cccc2)nc1 0
NC(=O)c1cccc(Oc2ncc(Cl)cn2)c1-n1cc(C(F)(F)F)cn1 0
Fc1cccc(Oc2ncc(Cl)cn2)c1-n1cc(-c2ccsc2)nn1 50

Continue with the next compound.
Query: For FCc1cccc(Oc2ncc(Cl)cn2)c1-n1cc(Cl)cn1 , what is its reported Plant response rating, Ryegrass, Italian?
Response: 0
